# SYSTEM: Pantothenate synthetase (Mycobacterium tuberculosis (strain ATCC 25618 / H37Rv))
# ASSAY NAME: Coupled enzyme confirmation of inhibitors against recombinant Mtb PanC (AID 375);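 note: 0% = full reaction with vehicle and 100% = no enzyme background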
# RECORDED CONDITIONS: coupled enzyme assay; at 10 µM, stronger effect = higher value
MEASUREMENT LABEL: inhibition (%)

• Cc1ccc(S(=O)(=O)N2CCN(C(=O)CSc3nnnn3C)C2)cc1 = 1
• CC(C)C1C2=C(CC(C)(C)CC2=O)ON1c1ccccc1 (stereo unspecified) = 1
• C/C(=N\O)C(C)/[N+]([O-])=C/c1nc(C)c(C)n1O (stereo unspecified) = 0
• O=C(NC1CCCC1)C(NS(=O)(=O)c1cccc2nsnc12)c1ccccc1 (stereo unspecified) = 7
• O=C(c1c(F)cccc1F)N(Cc1ccccn1)C1CCCC1 = 1
• CCSC1=NCN(CCCC(=O)O)CN1 = 0
• COc1ccc(CC(NC(C)=O)C(=O)N2CCN(C(=O)N(C(C)C)C(C)C)CC2)cc1 (stereo unspecified) = 0
• C[N+]12CCC(CC1)C(OC(=O)C(O)(c1ccccc1)c1ccccc1)C2 (stereo unspecified) = 0
• COc1ccc(C(=O)NCCn2ccc3ccccc32)cc1 = 0
• COc1ccc(C(CNC(=O)c2cc(C)oc2C)N2CCOCC2)cc1 (stereo unspecified) = 0
• CCOC(=O)c1ccc(Oc2cc(C)nc(SC)n2)cc1 = 0
